Molecular target: Ylr278c (UniProt Q05854)
Sequence (Q05854 whole entry): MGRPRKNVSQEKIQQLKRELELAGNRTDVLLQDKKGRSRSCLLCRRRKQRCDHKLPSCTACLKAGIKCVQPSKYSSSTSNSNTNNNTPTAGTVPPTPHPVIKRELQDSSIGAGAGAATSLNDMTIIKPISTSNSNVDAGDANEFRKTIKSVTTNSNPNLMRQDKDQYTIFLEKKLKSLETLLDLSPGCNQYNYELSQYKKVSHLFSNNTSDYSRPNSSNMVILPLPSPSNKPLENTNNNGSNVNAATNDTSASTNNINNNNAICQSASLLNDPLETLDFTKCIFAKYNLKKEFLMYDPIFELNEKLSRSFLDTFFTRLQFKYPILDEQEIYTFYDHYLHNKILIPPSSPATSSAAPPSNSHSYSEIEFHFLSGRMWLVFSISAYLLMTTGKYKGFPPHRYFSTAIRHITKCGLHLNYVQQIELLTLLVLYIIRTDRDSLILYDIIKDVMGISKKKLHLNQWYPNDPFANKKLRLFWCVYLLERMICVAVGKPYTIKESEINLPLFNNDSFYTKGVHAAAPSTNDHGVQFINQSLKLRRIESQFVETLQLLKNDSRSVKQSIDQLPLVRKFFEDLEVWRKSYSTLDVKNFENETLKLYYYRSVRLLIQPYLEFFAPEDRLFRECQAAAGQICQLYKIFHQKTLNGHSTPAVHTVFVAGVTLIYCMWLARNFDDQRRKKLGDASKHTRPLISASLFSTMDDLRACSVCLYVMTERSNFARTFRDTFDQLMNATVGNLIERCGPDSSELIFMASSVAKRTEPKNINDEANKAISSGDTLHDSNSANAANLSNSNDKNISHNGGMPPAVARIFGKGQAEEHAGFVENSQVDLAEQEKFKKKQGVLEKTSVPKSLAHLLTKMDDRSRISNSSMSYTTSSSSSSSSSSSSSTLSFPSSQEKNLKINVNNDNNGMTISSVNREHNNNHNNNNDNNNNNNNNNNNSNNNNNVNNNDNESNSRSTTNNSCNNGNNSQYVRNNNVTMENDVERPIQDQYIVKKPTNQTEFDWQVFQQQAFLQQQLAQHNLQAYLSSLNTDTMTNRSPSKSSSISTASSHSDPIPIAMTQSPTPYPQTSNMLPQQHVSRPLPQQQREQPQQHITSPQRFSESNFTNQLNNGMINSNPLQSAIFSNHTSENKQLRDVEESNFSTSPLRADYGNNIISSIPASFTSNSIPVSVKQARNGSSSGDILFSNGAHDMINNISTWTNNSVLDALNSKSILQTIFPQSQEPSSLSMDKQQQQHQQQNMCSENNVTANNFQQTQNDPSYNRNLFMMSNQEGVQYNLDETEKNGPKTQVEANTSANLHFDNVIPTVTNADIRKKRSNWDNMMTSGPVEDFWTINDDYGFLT
Test: PBM E-score (8-mer binding enrichment) (E-score (-0.5 to 0.5)); higher = stronger / more preferred TF binding
Conditions: protein concentration: 200 nM; construct: GST-DNA-binding domain
In all, about 33,000 sequences were measured (“E-score (-0.5 to 0.5)”: median about -0.054, highest 2% from about 0.39 on). Shown is part of a subset that was picked to be rich in the highest values.
metric-name: PBM E-score
Answers are plain numbers.

Observe how each entry below is paired with its result.
sequence-record: GCTTCTAC
result-number: -0.123

sequence-record: CTGTCGGA
result-number: 0.404

sequence-record: ATTTAAGA
result-number: -0.154

Hey, can you go through the list below and give me PBM E-score for every item?
1. GGCCGGAA
2. AGTAAGTG
3. CGGAGTGA
4. TAATCGGA
5. TGCCGTAA

[0.422, -0.128, 0.459, 0.417, -0.0603]

Batch request: PBM E-score for each of the following sequences.
1. CGCCGGGC
2. AGTGAGCC
3. AAATATCT
4. AGGAGTCC
5. GCACCGTA
6. CCGGAGAA

1: 0.378; 2: -0.162; 3: 0.00279; 4: 0.13; 5: 0.0145; 6: 0.489
